- System: Smooth muscle cells
- ASSAY_METHOD_TEXT: Smooth muscle cell (SMC) migration test (horizontal, vitronectin-coated plates)
- Type: cell-based, humans or rats
- DETAILS: migration on vitronectin, 24 hours at 37°C; human or rat cells not specified
- Protocol: b) Smooth muscle cell (SMC) migration test Smooth muscle cells from humans or rats were used. The migration of the cells was determined in a horizontal measuring arrangement (Falcon). The horizontal migration was determined in 6-well plates coated with vitronectin (1 µg/cm^2). […] After the incubation, the smooth muscle cell migration was determined by measurement of the migration distance and the cell density of the migrated cells.
VALUE_KIND: IC50

>>> result("CC1(C)C2CCC1(CS(=O)(=O)NC(Cc1ccc(-c3cccc(NC(=O)Nc4cccnc4)c3)cc1)C(=O)O)C(=O)C2 (stereo not drawn)")
"0.003 to 0.04 µM"
>>> result("Cc1cc(C)c(S(=O)(=O)N[C@@H](Cc2ccc(-c3cccc(CNc4ccccn4)c3)cc2)C(=O)O)c(C)c1")
"0.035 to 0.08 µM"

As a next step, examine the compound that follows.
Enquiry: Need IC50 of O=C(O)CC(NS(=O)(=O)c1cccc(-c2cccc(CNCc3nc4ccccc4[nH]3)c2)c1)c1ccccc1 (racemic) , thanks.
Return: 0.3 µM
